These entries and their values trace back to ChEMBL document CHEMBL5356967.

Provide the recorded MIC80 for the entries that follow.
# Test system: Candida albicans
# experiment: Antifungal activity against fluconazole-resistant Candida albicans 901 assessed as inhibition of fungal growth incubated for 24 hrs by broth microdilution method
# Format: functional

| molecule | MIC80 |
| --- | --- |
| OCCC1CCN(CCc2cn(C[C@H]3CO[C@](Cn4ccnc4)(c4ccc(O)cc4F)O3)nn2)CC1 (mixture of isomers) | 2 µg/mL |

// for each molecule in input: emit MIC80
1. CCCN(CCC)CCc1cn(C[C@H]2CO[C@](Cn3ccnc3)(c3ccc(O)cc3F)O2)nn1 (mixture of isomers)
2. CCCCCOc1ccc(-c2cn(C[C@H]3CO[C@](Cn4ccnc4)(c4ccc(O)cc4F)O3)nn2)cc1 (mixture of isomers)
3. CC(=O)N1CCN(c2ccc(OC[C@@H]3CO[C@@](Cn4ccnc4)(c4ccc(Cl)cc4Cl)O3)cc2)CC1
4. OC(Cn1cncn1)(Cn1cncn1)c1ccc(F)cc1F
5. CCN(CC)CCc1cn(C[C@H]2CO[C@](Cn3ccnc3)(c3ccc(O)cc3F)O2)nn1 (mixture of isomers)
6. OCC1CCN(CCc2cn(C[C@H]3CO[C@](Cn4ccnc4)(c4ccc(O)cc4F)O3)nn2)CC1 (mixture of isomers)

["> 64 µg/mL", "> 64 µg/mL", "> 64 µg/mL", "> 64 µg/mL", "> 64 µg/mL", "2 µg/mL"]
